Biological target: EGFR del19 T790M C797S protein in Ba/F3 cells (Homo sapiens, UniProt P00533, C797S/DEL746-750/T790M)
Sequence (P00533 with tags, fused parts or gaps C797S/DEL746-750/T790M limits assumed): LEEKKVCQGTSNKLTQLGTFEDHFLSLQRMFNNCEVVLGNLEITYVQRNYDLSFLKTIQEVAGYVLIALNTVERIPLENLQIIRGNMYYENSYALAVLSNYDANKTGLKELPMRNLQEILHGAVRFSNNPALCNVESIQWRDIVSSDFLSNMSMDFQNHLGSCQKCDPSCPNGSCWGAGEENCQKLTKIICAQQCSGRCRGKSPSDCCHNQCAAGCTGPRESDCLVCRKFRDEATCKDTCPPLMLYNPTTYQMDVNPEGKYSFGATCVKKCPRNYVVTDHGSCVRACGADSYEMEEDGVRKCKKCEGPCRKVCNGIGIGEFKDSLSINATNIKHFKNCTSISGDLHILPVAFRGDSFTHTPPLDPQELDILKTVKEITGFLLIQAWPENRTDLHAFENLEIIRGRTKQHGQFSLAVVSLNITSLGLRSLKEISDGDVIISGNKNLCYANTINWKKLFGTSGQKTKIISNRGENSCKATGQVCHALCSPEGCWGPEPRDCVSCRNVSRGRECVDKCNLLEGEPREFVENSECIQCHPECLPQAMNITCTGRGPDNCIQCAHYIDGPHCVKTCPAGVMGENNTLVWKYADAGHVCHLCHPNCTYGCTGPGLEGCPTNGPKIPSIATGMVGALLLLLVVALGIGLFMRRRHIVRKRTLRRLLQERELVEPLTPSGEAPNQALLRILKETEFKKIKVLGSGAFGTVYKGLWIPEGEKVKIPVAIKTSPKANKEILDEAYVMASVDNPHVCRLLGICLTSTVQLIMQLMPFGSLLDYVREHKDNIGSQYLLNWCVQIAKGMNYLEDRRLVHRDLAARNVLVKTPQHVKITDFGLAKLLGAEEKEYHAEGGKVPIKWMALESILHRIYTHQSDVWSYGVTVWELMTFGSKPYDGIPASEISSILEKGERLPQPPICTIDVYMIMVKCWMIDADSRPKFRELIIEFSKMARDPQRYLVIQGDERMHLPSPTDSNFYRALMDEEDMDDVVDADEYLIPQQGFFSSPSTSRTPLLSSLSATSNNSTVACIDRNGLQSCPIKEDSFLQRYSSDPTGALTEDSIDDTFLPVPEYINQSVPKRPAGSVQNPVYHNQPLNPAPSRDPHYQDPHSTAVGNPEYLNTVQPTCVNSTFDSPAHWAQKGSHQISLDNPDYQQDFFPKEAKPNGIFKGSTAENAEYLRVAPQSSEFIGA
Assay: pEGFR assay (AlphaScreen Surefire, EGFR Tyr1068 phosphorylation)
pIC50: −log10 of the molar value.
Reported endpoint: pIC50

COc1ccccc1-c1cc(C(=O)/N=c2\[nH]c3cc(C4CCN(C)CC4)ccc3n2[C@H]2CC[C@@H](O)CC2)ccn1 8.70

a = O=C(/N=c1\[nH]c2ccccc2n1[C@H]1CC[C@@H](O)CC1)c1ccnc(-c2ccccc2Cl)c1
b = COc1cc(F)ccc1-c1cc(C(=O)/N=c2\[nH]c3ccccc3n2[C@H]2CC[C@@H](O)CC2)ccn1
c = COc1ccccc1-c1cc(C(=O)/N=c2\[nH]c3ccccc3n2[C@H]2CCCOC2)ccn1
Sort these compounds on pIC50 so the largest reading comes first. // respond by listing labels in the order requested
c, a, b

A = COc1ncccc1-c1cc(C(=O)/N=c2\[nH]c3ccccc3n2[C@H]2CC[C@@H](O)CC2)ccn1
B = COc1ccccc1-c1cc(C(=O)/N=c2\[nH]c3cc(C)ccc3n2[C@H]2CC[C@@H](O)CC2)ccn1
Please state the entry with greater pIC50 among A and B . State the label of the item chosen.
B

###

Target: EGFR del19 T790M C797S protein in Ba/F3 cells (Homo sapiens, UniProt P00533, C797S/DEL746-750/T790M)
Experiment: pEGFR assay (AlphaScreen Surefire, EGFR Tyr1068 phosphorylation)
pIC50: −log10 of the molar value.
Reported endpoint: pIC50

Below, 3 molecules whose answers are already recorded.
Molecule	pIC50
CN1CCC(c2ccc3c(c2)[nH]/c(=N\C(=O)c2ccnc(-n4cnc5cccc(F)c54)c2)n3CC(C)(C)O)CC1 [I-030]	8.22
CC(C)(O)Cn1/c(=N/C(=O)c2ccnc(-c3cccnc3)c2)[nH]c2cc(C3CCCOC3)ccc21 (stereo not shown) [I-052]	8.22
Cn1cc(-c2cc(C(=O)/N=c3\[nH]c4cc(CCC(C)(C)O)ccc4n3CC(C)(C)O)ccn2)cn1 [I-178]	7.92

a = O=C(/N=c1\[nH]c2ccccc2n1[C@H]1CC[C@@H](O)CC1)c1ccnc(-c2ccc(F)cc2)c1 [I-177]
b = Cn1cc(-c2cc(C(=O)/N=c3\[nH]c4ccccc4n3C3CCOCC3)ccn2)cn1 [I-049]
c = CC(=O)N1CCC(c2ccc3c(c2)[nH]/c(=N\C(=O)c2ccnc(-c4cnn(C)c4)c2)n3[C@H]2CC[C@@H](O)CC2)CC1 [I-219]
d = Cn1cc(-c2cc(C(=O)/N=c3\[nH]c4cc(F)ccc4n3CC(C)(C)O)ccn2)cn1 [I-194]
Please list these in order of increasing pIC50. Thank you! // respond by listing labels in the order requested
d, a, b, c

###

Biological target: EGFR del19 T790M C797S protein in Ba/F3 cells (Homo sapiens, UniProt P00533, C797S/DEL746-750/T790M)
Experiment: pEGFR assay (AlphaScreen Surefire, EGFR Tyr1068 phosphorylation)
Reported endpoint: IC50 (nM)

Compound	Reported endpoint	Assay value
COc1ccccc1-c1cc(C(=O)/N=c2\[nH]c3ccccc3n2[C@@H]2CCC[C@@H](O)C2)ccn1	IC50	2
O=C(/N=c1\[nH]c2ccccc2n1[C@H]1CC[C@@H](O)CC1)c1ccnc(-c2cccn3ncnc23)c1	IC50	12
COc1ccccc1-c1cc(C(=O)/N=c2\[nH]c3cc(CN4CCCC(OC)C4)ccc3n2[C@H]2CC[C@@H](O)CC2)ccn1 (stereo partly drawn)	IC50	4
Cc1cc(C(=O)/N=c2\[nH]c3ccc(C4CCN(C)CC4)cc3n2[C@H]2CC[C@@H](O)CC2)cc(-c2cnn(C)c2)n1	IC50	2
O=C(/N=c1\[nH]c2ccccc2n1[C@H]1CC[C@@H](O)CC1)c1ccnc(-c2coc3ccccc23)c1	IC50	9

1 = Cn1cc(-c2cc(C(=O)/N=c3\[nH]c4cc(NC[C@@H]5CCCO5)ccc4n3CC(C)(C)O)ccn2)cn1
2 = Cc1c(-c2cc(C(=O)/N=c3\[nH]c4ccccc4n3C3CCCCC3)ccn2)cnn1C
3 = Cc1cc(C(=O)/N=c2\[nH]c3ccccc3n2[C@H]2CC[C@@H](O)CC2)cc(-c2cnn(C)c2)n1
4 = Cn1cc(-c2cc(C(=O)/N=c3\[nH]c4ccccc4n3[C@H]3CCC[C@@H](O)C3)ccn2)cn1 [I-126]
5 = Cn1cc(-c2cc(C(=O)/N=c3\[nH]c4ccccc4n3[C@H]3CC[C@H](O)C3)ccn2)cn1
Please list these in order of increasing IC50. Thank you! // respond by listing labels in the order requested
2, 3, 4, 1, 5

P = COc1ccccc1-c1cc(C(=O)/N=c2\[nH]c3cc(CN4CCOCC4)ccc3n2[C@H]2CCC[C@H](O)C2)ccn1
Q = Cc1cc(C(=O)/N=c2\[nH]c3ccc(CN4CCN(C)CC4)cc3n2[C@H]2CC[C@@H](O)CC2)cc(-c2cnn(C)c2)n1
Please state the entry with greater IC50 among P and Q . State the label of the item chosen.
P

P = COc1ccccc1-c1cc(C(=O)/N=c2\[nH]c3ccccc3n2[C@H]2CCC[C@@H](O)C2)ccn1 [I-127]
Q = O=C(/N=c1\[nH]c2ccccc2n1[C@H]1CC[C@@H](O)CC1)c1ccnc(-n2ccc3ccccc32)c1
Lowest IC50? choose P or Q State the label of the item chosen.
P
